target: natural β-amyloid peptide β-AP1-40 (human); experiment: cell-based or functional assay
Sequence (peptide, as listed by the source): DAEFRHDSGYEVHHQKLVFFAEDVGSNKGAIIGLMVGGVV
Square brackets hold non-standard residues; d marks the D form. * marks the point of attachment. Cholyl = C[C@H](CCC(=O)*)[C@H]1CC[C@H]2[C@@H]3[C@H](O)C[C@@H]4C[C@H](O)CC[C@]4(C)[C@H]3C[C@H](O)[C@]12C; βAla = NCCC(=O)O
% Inucl'n; nucleation assay; 100 mole % by entry:

# binder, % Inucl'n; nucleation assay; 100 mole % [%]
records = [
    ("Cholyl-HDSGY-NH2 (SMILES C[C@H](CCC(=O)N[C@@H](Cc1c[nH]cn1)C(=O)N[C@@H](CC(=O)O)C(=O)N[C@@H](CO)C(=O)NCC(=O)N[C@@H](Cc1ccc(O)cc1)C(N)=O)[C@H]1CC[C@H]2[C@@H]3[C@H](O)C[C@@H]4C[C@H](O)CC[C@]4(C)[C@H]3C[C@H](O)[C@]12C) [cholyl-Aβ6-10-amide]", -18),
    ("H-LVFFA-NH2 [h-LVFFA-nh2]", 11),
    ("Cholyl-KLVFF[βAla]-OH (SMILES CC(C)C[C@H](NC(=O)[C@H](CCCCN)NC(=O)CC[C@@H](C)[C@H]1CC[C@H]2[C@@H]3[C@H](O)C[C@@H]4C[C@H](O)CC[C@]4(C)[C@H]3C[C@H](O)[C@]12C)C(=O)N[C@H](C(=O)N[C@@H](Cc1ccccc1)C(=O)N[C@@H](Cc1ccccc1)C(=O)NCCC(=O)O)C(C)C) [CA-KLVFF(βA)-oh]", 76),
    ("Cholyl-KLVFF-OH [cholyl-Aβ16-20]", 72),
]

These entries and their values trace back to patent US7658917.
